System: HL-60(TB) leukemia
Test: NCI-60 one-dose screen, 48 h
Conditions: 10 µM unless noted
This is part of a sample that, as a whole, favours compounds with a hit. Of some 83,000 tested, about 20% had one in any assay. Activity calls are given as the source filed them. The calls were made as follows: active = growth percent below 10; inactive = the rest.
I would appreciate it if you answered using one of these outcomes: active, inactive

| compound | class.label |
| --- | --- |
| CN(C)S(=O)(=O)Oc1ccc(-c2sc3cc(OS(=O)(=O)N(C)C)ccc3c2C(=O)c2ccc(OCCN3CCCCC3)cc2)cc1 | inactive |
| CCCCCN(CCCCC)C(C)C(O)c1ccc2cc(Cl)c3ccccc3c2c1 (stereo not given) | inactive |
| CC(=O)Oc1cc(C)c(OC(C)=O)c(C)c1C | inactive |
| Oc1ccc(Br)cc1Sc1cc(Br)ccc1O | inactive |
| CC(C)N(CCCC#N)C(C)C | inactive |

Per the records of this test, what outcome belongs to O=C(/C=C/c1ccc(Cl)cc1)c1ccc(-n2cc(CN3CCN(c4cc5c(cc4F)c(=O)c(C(=O)O)cn5C4CC4)CC3)nn2)cc1 ?
inactive

Per the records of this test, what outcome belongs to C/C(=C(/c1ccc(O)cc1)c1ccc(Cl)cc1)c1ccccc1 ?
active

Per the records of this test, what outcome belongs to NS(=O)(=O)c1ccc(N2N=C(c3ccc(-c4ccccc4)cc3)CC2c2ccc(Cl)cc2)cc1 (stereo not given) ?
inactive

Per the records of this test, what outcome belongs to CC(=O)N1CCN(CCNC(=O)n2cc(-c3ccncc3)c(-c3cc(O)cc(Cl)c3)n2)CC1 ?
inactive

Per the records of this test, what outcome belongs to Cc1cc(Nc2nc(-c3ccncc3)nc3ccccc23)n[nH]1 ?
inactive
